experimental-protocol: Primary phase half life in C57BL/6N mouse at 0.171 mM, iv measured upto 24 hrs
Assay type: ADME, organism-based
condition-description: in vivo, read-out: alphat1/2 (converted)
Quick reference for half-life at 171 µM among some compounds

compound: CN1/C(=C/C=C2C=C(/C=C/C3=[N+](CCCCCC(=O)NCCOCCOCC(=O)NCCOCCOCC(=O)NCCOCCOCC(=O)NC(CSSc4ccccn4)C(N)=O)c4ccc(S(=O)(=O)[O-])cc4C3(C)C)CCC/2)C(C)(C)c2cc(S(=O)(=O)O)ccc21 (configuration not stated)
half-life at 171 µM, h: 1.26
//
compound: CCCCCCCCCCCCCCCC(=O)NCCCCC(NC(=O)COCCOCCNC(=O)CCCCC[N+]1=C(/C=C/C2=CC(=C/C=C3/N(C)c4ccc(S(=O)(=O)O)cc4C3(C)C)/CCC2)C(C)(C)c2cc(S(=O)(=O)[O-])ccc21)C(=O)NCCOCCOCC(=O)NCCOCCOCC(=O)NC(CSSc1ccccn1)C(N)=O (configuration not stated)
half-life at 171 µM, h: 1.51
